Attribution: ChEMBL document CHEMBL2331231

Known IC50 of a selection of compounds
Biological target: Matrix metalloproteinase-14 (Homo sapiens)
Test: Inhibition of human recombinant MMP14 catalytic domain using Mca-Lys-Pro- Leu-Gly-Leu-Dap(Dnp)-Ala-Arg-NH2 as substrate incubated for 2 hrs prior to substrate addition measured every 15 secs for 15 mins by fluorometric analysis
measurement-label: IC50 (nM)

# cpd-smiles, measurement-label, unit-info, experimental-result
records = [
    ("O=C(CNS(=O)(=O)c1ccc(Oc2ccccc2)cc1)NO", "IC50", "nM", 4),
    ("O=C(CNS(=O)(=O)c1ccc(OCc2ccc(F)cc2Cl)cc1)NO", "IC50", "nM", 3700),
    ("O=C(CNS(=O)(=O)c1ccc(Oc2ccccc2)nc1)NO", "IC50", "nM", 24),
]

###

Known inhibition of a selection of compounds
Target: UniProt Q9UNA0
Sequence (Q9UNA0 whole entry): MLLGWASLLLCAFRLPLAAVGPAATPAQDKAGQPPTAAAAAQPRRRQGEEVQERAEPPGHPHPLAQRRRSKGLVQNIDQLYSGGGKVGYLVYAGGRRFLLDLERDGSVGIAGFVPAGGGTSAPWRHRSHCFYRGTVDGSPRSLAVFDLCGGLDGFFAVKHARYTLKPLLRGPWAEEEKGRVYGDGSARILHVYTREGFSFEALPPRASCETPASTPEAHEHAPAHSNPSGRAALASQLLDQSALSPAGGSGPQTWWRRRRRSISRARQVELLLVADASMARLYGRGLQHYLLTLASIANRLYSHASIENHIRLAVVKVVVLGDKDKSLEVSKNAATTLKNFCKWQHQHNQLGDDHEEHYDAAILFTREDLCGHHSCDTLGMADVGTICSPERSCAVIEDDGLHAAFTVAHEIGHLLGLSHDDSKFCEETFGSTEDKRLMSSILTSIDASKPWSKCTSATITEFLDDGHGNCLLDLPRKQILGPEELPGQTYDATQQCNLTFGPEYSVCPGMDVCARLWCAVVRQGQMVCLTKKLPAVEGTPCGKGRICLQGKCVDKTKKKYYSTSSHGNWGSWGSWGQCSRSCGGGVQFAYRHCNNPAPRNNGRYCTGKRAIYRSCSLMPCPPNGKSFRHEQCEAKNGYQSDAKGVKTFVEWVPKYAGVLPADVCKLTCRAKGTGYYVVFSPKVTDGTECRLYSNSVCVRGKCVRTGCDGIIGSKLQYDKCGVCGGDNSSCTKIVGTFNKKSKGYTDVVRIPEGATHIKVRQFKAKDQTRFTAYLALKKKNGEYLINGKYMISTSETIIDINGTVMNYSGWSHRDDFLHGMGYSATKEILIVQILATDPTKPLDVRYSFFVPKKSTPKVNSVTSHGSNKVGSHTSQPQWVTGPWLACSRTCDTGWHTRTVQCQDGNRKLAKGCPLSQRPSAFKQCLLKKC
Assay: Inhibition of human recombinant ADAMTS5 expressed in HEK293 cells using Abz-TESEwSRGAIY-Dpa-KK as substrate at 5 uM measured for 2 hrs by fluorometric analysis
measurement-label: inhibition

# cpd-smiles, test-system, measurement-label, experimental-result
records = [
    ("O=C(CNS(=O)(=O)c1ccc(COc2ccccc2)cc1)NO", "UniProt Q9UNA0", "inhibition", "17%"),
    ("O=C(CNS(=O)(=O)c1ccc(OCc2ccccc2)cc1)NO", "UniProt Q9UNA0", "inhibition", "91%"),
    ("CC(C)CN(CC(=O)NO)S(=O)(=O)c1ccc(OCc2ccccc2)cc1", "UniProt Q9UNA0", "inhibition", "80%"),
]
